Quick reference: pIC50 of the listed items.
- system-under-test: UniProt P04798
- Sequence (P04798 whole entry): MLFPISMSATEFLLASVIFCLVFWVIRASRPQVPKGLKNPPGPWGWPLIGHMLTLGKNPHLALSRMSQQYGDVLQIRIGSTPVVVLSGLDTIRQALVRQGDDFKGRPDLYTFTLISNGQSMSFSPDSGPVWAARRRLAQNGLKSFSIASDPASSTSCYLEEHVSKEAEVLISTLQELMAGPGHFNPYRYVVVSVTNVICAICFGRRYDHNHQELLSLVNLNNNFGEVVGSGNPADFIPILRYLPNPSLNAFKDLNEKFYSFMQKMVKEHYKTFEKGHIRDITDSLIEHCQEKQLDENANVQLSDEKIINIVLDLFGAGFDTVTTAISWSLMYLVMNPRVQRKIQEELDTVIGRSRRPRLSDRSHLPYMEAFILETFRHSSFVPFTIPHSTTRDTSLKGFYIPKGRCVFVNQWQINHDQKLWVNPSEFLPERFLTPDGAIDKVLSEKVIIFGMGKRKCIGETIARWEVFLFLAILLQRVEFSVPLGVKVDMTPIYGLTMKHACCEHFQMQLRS
- measurement-notes: CYP1A1 inhibition in yeast microsomes
- Assay type: biochemical
pIC50: −log10 of the molar value.
measurement-kind: pIC50

INSERT INTO measurements (compound, measured_result) VALUES
  ('COc1c(C(=O)C=Cc2cccnc2)c(O)c(OC)c2occc12 [3g]', 6.47),
  ('COc1c(C(=O)C=Cc2ccsc2)c(O)c(OC)c2occc12 [3r]', 6.55);

----------
- system-under-test: CYP2D6 (Homo sapiens, UniProt P10635)
- Sequence (P10635 whole entry): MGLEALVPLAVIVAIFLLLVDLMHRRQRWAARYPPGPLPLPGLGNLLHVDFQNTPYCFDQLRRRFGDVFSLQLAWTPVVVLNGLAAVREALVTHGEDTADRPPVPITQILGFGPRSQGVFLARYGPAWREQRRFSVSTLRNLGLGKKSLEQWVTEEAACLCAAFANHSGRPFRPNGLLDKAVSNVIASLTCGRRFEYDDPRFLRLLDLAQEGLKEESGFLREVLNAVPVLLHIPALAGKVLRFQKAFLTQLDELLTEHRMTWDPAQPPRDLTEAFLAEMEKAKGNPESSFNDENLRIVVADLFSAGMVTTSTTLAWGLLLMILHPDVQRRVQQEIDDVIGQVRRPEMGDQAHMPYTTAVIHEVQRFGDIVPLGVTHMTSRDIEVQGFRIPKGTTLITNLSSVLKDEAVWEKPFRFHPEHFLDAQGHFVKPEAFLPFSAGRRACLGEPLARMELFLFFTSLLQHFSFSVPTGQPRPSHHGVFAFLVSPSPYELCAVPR
- measurement-notes: CYP2D6 inhibition in live human HEK293 cells
pIC50: −log10 of the molar value.
measurement-kind: pIC50

INSERT INTO assay_data (compound, system_under_test, measurement_kind, measured_result) VALUES
  ('COc1c2c(c(OC)c3occc13)OC(c1cccnc1)CC2=O (stereo not drawn) [4e]', 'CYP2D6 (Homo sapiens, UniProt P10635)', 'pIC50', '< 5.00'),
  ('COc1c2c(c(OC)c3occc13)OC(c1ccc(F)c(Br)c1)CC2=O (stereo not drawn) [4l]', 'CYP2D6 (Homo sapiens, UniProt P10635)', 'pIC50', '< 5.00'),
  ('COc1c2c(c(OC)c3occc13)OC(c1ccccc1)CC2=O (stereo not drawn) [4a]', 'CYP2D6 (Homo sapiens, UniProt P10635)', 'pIC50', '< 5.00');
